# credit: ChEMBL document CHEMBL4359924

test.name: Fraction unbound in human plasma
Assay type: ADME, cell-free
measure.name: fraction unbound

These solved cases illustrate the format of a correct answer.
Data point: Cc1nnc2ccc(C(=O)NC3CN(c4ncc(Cl)cc4F)C3)cc2c1C ; fraction unbound = 0.032

Data point: Cc1nnc2ccc(C(=O)NC3CN(c4ccc(F)c(F)c4)C3)cc2c1C ; fraction unbound = 0.051

Data point: COc1cc(N2CC(NC(=O)c3ccc4nnc(C)c(C)c4c3)C2)c(Cl)cn1 ; fraction unbound = 0.038

Data point: Cc1nnc2ccc(C(=O)NC3CN(c4cc(Cl)ncc4Cl)C3)cc2c1C ; fraction unbound = 0.06

1. Cc1nnc2ccc(C(=O)NC3CN(c4ncc(C#N)cc4Cl)C3)cc2c1C
2. Cc1nnc2ccc(C(=O)NC3CN(c4ncc(F)cc4Cl)C3)cc2c1C
Looking at 1 and 2 , which one comes out lower in fraction unbound terms? Please reply using the label of the selected record.
1
